Cited source: patent US20140072563A1

Target: hErbB3.mmh (soluble monomeric human ErbB3 extracellular domain with C-terminal myc-myc-hexahistidine tag) (human, UniProt P21860 20-642)
Sequence (P21860 other isoform, or with tags, fused parts or gaps): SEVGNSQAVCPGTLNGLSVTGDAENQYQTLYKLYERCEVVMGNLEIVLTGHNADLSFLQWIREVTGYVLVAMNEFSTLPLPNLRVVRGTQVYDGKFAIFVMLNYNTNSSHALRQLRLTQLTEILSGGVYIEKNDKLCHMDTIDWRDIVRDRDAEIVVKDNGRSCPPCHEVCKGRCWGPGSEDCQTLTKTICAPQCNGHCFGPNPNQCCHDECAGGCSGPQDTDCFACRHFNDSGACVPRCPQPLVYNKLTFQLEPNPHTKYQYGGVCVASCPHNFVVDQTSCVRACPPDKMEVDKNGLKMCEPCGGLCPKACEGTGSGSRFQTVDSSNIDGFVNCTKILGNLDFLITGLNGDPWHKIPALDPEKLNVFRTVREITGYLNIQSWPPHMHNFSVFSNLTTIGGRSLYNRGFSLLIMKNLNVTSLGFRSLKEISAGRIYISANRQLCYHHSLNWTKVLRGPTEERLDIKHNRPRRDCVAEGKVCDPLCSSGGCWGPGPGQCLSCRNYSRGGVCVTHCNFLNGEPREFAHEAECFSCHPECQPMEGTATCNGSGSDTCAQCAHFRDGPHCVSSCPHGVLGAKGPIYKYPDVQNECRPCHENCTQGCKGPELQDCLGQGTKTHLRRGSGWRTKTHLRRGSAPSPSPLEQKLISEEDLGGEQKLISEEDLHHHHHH
Assay: SPR (Biacore), 25 C, mAb capture format
Each entry below carries its reported pKd.
// scale note: pKd = -log10(conc_M); give the bare number

binder	parameter.measured	numeric.value
H4H2132P (antibody, V domains shown, Fully human, human IgG4 Fc (H4H prefix)) VH: EVQLVESGGGVVRPGGSLRLSCAASGFTFDDYGMSWVRQFPGKGLEWVSSIDGNGGNTGYSDSVKGRFTISRDNAKNSLHLQMNSLRAEDTALYHCARDPDYDSVWGNYRPFDYWGQGTLVTVSS VL: DIVMTQSPDSLAVSLGERATINCKSSQSVLSSSNDNNYLAWFQQKPGQPPNLLIYWASTRDSGVPDRFSASGSGTDFTLAISSLQAEDVAVYYCHQYYSSPPTFGQGTKVEIKR	pKd	10.75

pKd for H2M1937N (antibody, V domains shown, Hybridoma chimeric antibody: human variable domains, mouse IgG2 Fc (H2M prefix)) VH: QVQLQQWDAGLLKPSETLSLTCAVYGGSFSSYYWSWIRQPPGKGLEWIGEINHRGSTNYNPSLKSRVTISVDTSKNQFSLKLRSVTAADTAVYYCARGGVAARPDWHFFDYWGQGTLVTVSS VL: DIQMTQSPSSLSASVGDRVTITCRASQVIRNDLGWFQQRPGKAPKRLIYAASSLQSEVPSRFSGSGSGTEFTLTITSLQPEDFATYYCLQHNSYPLTFGQGTRLEIK is 9.17
